assay_details: The half-life period in vitro in rat small Intestine Homogenate
Type: ADME
measurement_name: half-life (min)

INSERT INTO measurements (chem_smiles, measurement_unit, endpoint_result) VALUES
  ('C/C(=C\c1ccc(C(=O)Oc2ccc(C(=N)N)cc2)cc1)C(=O)N(CC(=O)O)C1CCCC1', 'min', 42),
  ('C/C(=C\c1ccc(C(=O)Oc2ccc(C(=N)N)cc2)cc1)C(=O)N(CC(=O)O)Cc1ccccc1', 'min', 50),
  ('C/C(=C\c1ccc(C(=O)Oc2ccc(C(=N)N)cc2)cc1)C(=O)N(CC(=O)O)C1CCCCC1', 'min', 49),
  ('CCOC(=O)CN(Cc1ccccc1)C(=O)/C(C)=C/c1ccc(C(=O)Oc2ccc(C(=N)N)cc2)cc1', 'min', 44),
  ('C=CCN(CCCC(=O)O)C(=O)/C(C)=C/c1ccc(C(=O)Oc2ccc(C(=N)N)cc2)cc1', 'min', 55),
  ('C/C(=C\c1ccc(C(=O)Oc2ccc(C(=N)N)cc2)cc1)C(=O)N(CCO)Cc1ccccc1', 'min', 41);
